pIC50 for Receptor tyrosine-protein kinase erbB-2 (Homo sapiens, UniProt P04626) - collated from the literature.
pIC50: −log10 of the molar value.

Some entries whose results are on file:
> print(dat)
                                   compound        result
1  COc1cc(Nc2ncnc(Nc3ccc4c(c3)CCC4)n2)cc(OC)c1OC  5.21 to 5.99
2  CC(Oc1ccc(Nc2ncnc3ccc4c(c23)OCCN4C(=O)/C=C/CN(C)C)cc1)c1ccccn1 (centres unmarked)        ≥ 7.30
3  COc1cc(Nc2ncnc(-n3c(NC4CCCc5ccccc54)nc4ccccc43)n2)cc(OC)c1OC (centres unmarked)  5.34 to 6.12

// each compound listed below needs its pIC50
1. C=CC(=O)N1CCOc2c1ccc1ncnc(Nc3ccc(Oc4cccc(OC)c4)cc3)c21
2. COc1ccc(Nc2ncnc(N(C)c3cccc(Cl)c3)n2)cc1OC
3. c1ccc(Cn2ncc3cc(Nc4ncnc(Nc5cc(-c6ccccc6)[nH]n5)n4)ccc32)cc1
4. CC(C)c1nc(-c2ccc(F)c(NS(=O)(=O)c3c(F)cccc3F)c2)c(-c2ccnc(Nc3ccnc(N4CCOCC4)c3)n2)s1
5. O=C(O)c1cccc(Nc2ncnc(-n3c(NCc4ccccc4)nc4ccccc43)n2)c1

Ans:
["≥ 7.30", "> 5.97", "5.28 to 6.06", "> 7.00", "> 6.04"]

====

pIC50: −log10 of the molar value.
pIC50 for UniProt:P04626 - collated from the literature.

// each molecule listed below needs its pIC50
1. COc1ccc(-c2cc(Nc3ncnc(Nc4ccc(CC(N)=O)cc4)n3)[nH]n2)cc1
2. COCCCNc1ncnc(N2CCCc3cc(C)ccc32)n1
3. COc1ccc([C@@H](C)Nc2nc3ccccc3n2-c2ncnc(Nc3cc(OC)c(OC)c(OC)c3)n2)cc1
4. COc1cc2c(Nc3ccc(Cl)c(Cl)c3)ncnc2cc1OCc1csc([C@@H]2CCCN2)n1
5. Nc1ncnc(Nc2ccc(OCc3ccccc3)c(Cl)c2)c1/C=N/OCCCO
6. CCc1nc(-c2cccc(NS(=O)(=O)c3ccccc3)c2)c(-c2ccnc(Nc3ccc(OC)c(N4CCN(CCS(C)(=O)=O)CC4)c3)n2)s1
7. COc1ccc(Nc2ncnc(N(C)C3CCN(Cc4ccccc4)C3)n2)cc1OC (stereo not shown)
8. COc1cc(Nc2ncnc(-n3c(=O)[nH]c4ccccc43)n2)cc(OC)c1OCCN1CCOCC1

Ans:
1: < 4.97; 2: < 4.84; 3: < 5.07; 4: > 7.30; 5: 7.52; 6: 6.00 to 7.00; 7: < 4.97; 8: 5.15 to 5.31

====

IC50 for Receptor tyrosine-protein kinase erbB-2 (Homo sapiens, UniProt P04626) - collated from the literature.

Some entries whose results are on file:
> print(dat)
                  compound.structure.string           result
1      CON=Cc1c(N)ncnc1Nc1ccc(Oc2ccccc2)nc1          1.82 µM
2  CN(C)C/C=C/C(=O)N1CCOc2c1ccc1ncnc(Nc3ccc(Oc4ccccc4)c(F)c3)c21        ≤ 0.05 µM
3  COCCN1CCN(c2ccc(Nc3nccc(-c4sc(C(C)C)nc4-c4cccc(NS(=O)(=O)c5ccccc5)c4)n3)cn2)CC1      0.1 to 1 µM
4  COc1cc(Nc2ncnc(-n3c(NCc4cccc(F)c4)nc4ccccc43)n2)cc(OC)c1OC  6.98 to 8.97 µM
5  O=C(O)Cc1cccc(Nc2ncnc(-c3cccnc3NCc3ccccc3)n2)c1  0.97 to 5.82 µM

# ---- query compound ----
Q: Report measured IC50 on Receptor tyrosine-protein kinase erbB-2 (Homo sapiens, UniProt P04626); entry: COC(=O)c1ccc(S(=O)(=O)Nc2cccc(-c3nc(C(C)C)sc3-c3ccnc(Nc4ccc(N5CCOCC5)nc4)n3)c2)o1
Ans: > 1 µM

====

IC50 for Receptor tyrosine-protein kinase erbB-2 (Homo sapiens) - collated from the literature.

Some entries whose results are on file:
> print(dat)
                                   molecule  measured.attribute           result
1  COc1cc(Nc2ncnc(N(C)c3ccc4c(cnn4Cc4ccccc4)c3)n2)cc(OC)c1OC                IC50       < 0.804 µM
2  Nc1ncnc(Nc2ccc(OCc3cc(F)cc(F)c3)c(Cl)c2)c1/C=N/OCCN1CCOCC1                IC50           0.2 µM
3  COC(=O)Cc1cccc(Nc2ncnc(-n3c(N)nc4ccccc43)n2)c1                IC50  6.39 to 9.32 µM
4  Cc1ccc2c(c1)CCCN2c1ncnc(Nc2cccc(CO)c2)n1                IC50        < 1.15 µM

// each molecule listed below needs its IC50
1. COc1cc(N2CCN(CCS(C)(=O)=O)CC2)c(C)cc1Nc1nccc(-c2sc(C(C)C)nc2-c2cncc(NS(=O)(=O)c3c(F)cccc3F)c2)n1
2. COc1cc(Nc2ncnc(-c3cccnc3Cl)n2)cc(OC)c1OCCN1CCOCC1
3. CN(c1cccc(Cl)c1)c1ncnc(Nc2ccc(C(F)(F)F)cc2)n1
4. CC(=O)c1ccc(Nc2ncnc(Nc3ccc4c(cnn4Cc4ccccc4)c3)n2)cc1
5. COc1cc(N2CCN(CCS(C)(=O)=O)CC2)c(C)cc1Nc1nccc(-c2sc(C(C)C)nc2-c2cc(NS(=O)(=O)c3c(F)cccc3F)ccc2F)n1

Ans:
1. < 0.1 µM
2. > 9.52 µM
3. > 11.8 µM
4. 0.919 to 5.51 µM
5. < 0.1 µM

====

pIC50 for Receptor tyrosine-protein kinase erbB-2 (Homo sapiens, UniProt P04626) - collated from the literature.
pIC50: −log10 of the molar value.

// each compound listed below needs its pIC50
1. Cc1ccc2c(c1)CCCN2c1ncnc(NCCc2c[nH]c3ccccc23)n1
2. Clc1cc(Nc2ncnc3nn4ccccc4c23)ccc1OCc1ccccc1
3. COc1cc(Nc2ncnc(Nc3cccc(Cl)c3)n2)cc(OC)c1OC
4. CC(C)CN(CC#Cc1cc2ncnc(Nc3ccc(OCc4cccc(F)c4)c(Cl)c3)c2s1)CC(C)C
5. CS(=O)(=O)CCN1CCN(c2ccc(Nc3nccc(-c4oc(N5CCCC5)nc4-c4cccc(NS(=O)(=O)c5c(F)cccc5F)c4F)n3)cc2F)CC1

Ans:
1. 4.93 to 5.04
2. 6.00 to 7.00
3. > 5.99
4. < 7.00
5. > 7.00

====

IC50 for Receptor tyrosine-protein kinase erbB-2 (Homo sapiens) - collated from the literature.
Give bare numbers, in µM.

Some entries whose results are on file:
> print(dat)
                  compound.structure.string  measured.attribute  reading.unit  result.number
1  Cc1ccc(Oc2ccc(Nc3ncnc4ccc(-c5csc(CN/C(N)=N\C#N)n5)cc34)cc2C)cn1                IC50            µM          0.031
2  Clc1cccc(Nc2cncc(-c3cncc(NCCCn4ccnc4)c3)n2)c1                IC50            µM          0.966

# ---- query compound ----
Q: Check the records and state IC50 for CCNc1ncnc(Nc2ccc(OCc3cccc(F)c3)c(Cl)c2)c1/C=N/OCC
Ans: 10.4

====

IC50 for Receptor tyrosine-protein kinase erbB-2 (Homo sapiens) - collated from the literature.

> print(dat)
                                   compound  measured.attribute      result
1  COc1cc(CNc2ncnc(Nc3cc(-c4ccco4)n[nH]3)n2)cc(OC)c1OC                IC50  > 10600 nM

// each compound listed below needs its IC50
1. Cc1cc(Nc2ncnc3ccc4c(c23)OCCN4C(=O)/C=C/CN2CCCCC2)ccc1Oc1ccn2ncnc2c1
2. C#Cc1cccc(Nc2ncnc3cc(OCCOCC)c(NC(=O)/C=C/CN(C)C)cc23)c1
3. COc1cc(C)cc(-c2nc(CNS(C)(=O)=O)sc2-c2ccnc(Nc3ccc(N4CCN(C(C)=O)CC4)nc3)n2)c1

Ans:
["≤ 50 nM", "3.63 nM", "> 1000 nM"]

// each compound listed below needs its IC50
1. COc1ccccc1COc1ccc(Nc2ncnc3ccc4c(c23)OCCN4C(=O)/C=C/CN(C)C)cc1
2. COc1ccc(S(C)(=O)=O)cc1Nc1nccc(-c2sc(N3CCOCC3)nc2-c2cccc(NS(=O)(=O)c3c(F)cccc3F)c2F)n1
3. COc1cc(C)cc(-c2nc(C(C)C)sc2-c2ccnc(Nc3ccc(N4CCN5CCCCC5C4)c(F)c3)n2)c1 (stereo not shown)
4. COc1cc2c(Nc3ccc(Cl)c(Cl)c3)ncnc2cc1OCc1noc(C2CCCCN2C)n1 (stereo not shown)
5. COc1cc(Nc2ncnc(-n3c(NCc4ccc(F)cc4Cl)nc4ccccc43)n2)cc(OC)c1OC
6. COc1cc2c(Nc3cc(Br)cc(C(F)(F)F)c3)ncnc2cc1O[C@@H]1CO[C@@H]2[C@H]1OC[C@H]2F

Ans:
≤ 50 nM
> 1000 nM
> 1000 nM
< 50 nM
> 8400 nM
< 50 nM
